Assay: Probe fluorescence ratio response to arachidonic acid relative to ADIFAB2
Format: binding
Conditions: arachidonic acid; response relative to ADIFAB2

{"molecule": "72T 73V 74S (protein, listed as Rattus norvegicus, PEPTIDE (1)...(131) wild-type rat intestinal fatty acid binding protein) AFDGTWKVDRNENYEKFMEKMGINVVKRKLGAHDNLKLTITQEGNKFTVKESSNFRNIDVVFELGVDFAYSTVSGTELTGTWTMEGNKLVGKFKRVDNGKELIAVREISGNELIQTYTYEGVEAKRIFKKE", "DR/DR AA": 2.540}
{"molecule": "38Y 72G 117M (protein, listed as Rattus norvegicus, PEPTIDE (1)...(131) wild-type rat intestinal fatty acid binding protein) AFDGTWKVDRNENYEKFMEKMGINVVKRKLGAHDNLKYTITQEGNKFTVKESSNFRNIDVVFELGVDFAYSGADGTELTGTWTMEGNKLVGKFKRVDNGKELIAVREISGNELIQTMTYEGVEAKRIFKKE", "DR/DR AA": 1.541}
{"molecule": "38W, 72A (protein, listed as Rattus norvegicus, PEPTIDE (1)...(131) wild-type rat intestinal fatty acid binding protein) AFDGTWKVDRNENYEKFMEKMGINVVKRKLGAHDNLKWTITQEGNKFTVKESSNFRNIDVVFELGVDFAYSAADGTELTGTWTMEGNKLVGKFKRVDNGKELIAVREISGNELIQTYTYEGVEAKRIFKKE", "DR/DR AA": 1.350}

Values from patent US20060257938A1
